measured-target: Metabotropic glutamate receptor 4 (Homo sapiens, UniProt Q14833)
Sequence (Q14833 whole entry): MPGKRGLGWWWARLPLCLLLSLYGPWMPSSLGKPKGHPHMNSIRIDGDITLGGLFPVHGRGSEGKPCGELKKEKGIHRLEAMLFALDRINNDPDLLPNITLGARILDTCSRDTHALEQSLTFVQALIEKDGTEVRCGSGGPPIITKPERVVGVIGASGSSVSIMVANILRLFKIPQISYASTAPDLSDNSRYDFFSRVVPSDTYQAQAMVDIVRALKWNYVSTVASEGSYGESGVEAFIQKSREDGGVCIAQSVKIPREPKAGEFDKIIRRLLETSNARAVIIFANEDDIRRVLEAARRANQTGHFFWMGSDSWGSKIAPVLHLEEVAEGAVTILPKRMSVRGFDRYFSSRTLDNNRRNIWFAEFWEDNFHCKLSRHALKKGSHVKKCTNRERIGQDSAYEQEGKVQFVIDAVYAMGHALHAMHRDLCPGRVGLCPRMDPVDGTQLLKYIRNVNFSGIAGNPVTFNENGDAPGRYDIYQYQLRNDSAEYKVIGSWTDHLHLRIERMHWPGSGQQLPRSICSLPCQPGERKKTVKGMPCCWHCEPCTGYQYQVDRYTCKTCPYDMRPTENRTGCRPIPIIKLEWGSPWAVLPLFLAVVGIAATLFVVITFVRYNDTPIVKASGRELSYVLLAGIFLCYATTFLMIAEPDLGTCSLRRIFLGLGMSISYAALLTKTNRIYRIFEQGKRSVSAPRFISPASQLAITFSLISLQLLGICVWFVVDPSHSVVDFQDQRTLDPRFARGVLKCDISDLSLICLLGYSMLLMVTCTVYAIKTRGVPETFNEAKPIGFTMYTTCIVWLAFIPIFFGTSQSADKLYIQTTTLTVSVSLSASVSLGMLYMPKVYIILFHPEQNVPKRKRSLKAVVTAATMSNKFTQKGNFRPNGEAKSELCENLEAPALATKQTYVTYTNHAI
measurement-notes: Positive allosteric modulator activity at human mGlu4 receptor expressed in CHO cells expressing Gqi5 by calcium mobilization assay
Format: functional, cell-based
condition-summary: read-out: EC50
pEC50: −log10 of the molar value.
Record form. Attribute: pEC50. Fill in for each entry.

Query :: Which pEC50 is reported for this molecule? `Nc1cccnc1C(=O)Nc1ccc(N2Cc3ccc(Cl)cc3C2=O)c(Cl)c1`
Result :: < 5.00

Query :: pEC50 lookup needed for `O=C(Nc1ccc(N2C(=O)c3ccccc3C2=O)c(Cl)c1)c1ncccc1O` , thanks.
Result :: 6.90

Query :: Which pEC50 value belongs to `CCc1cnc(Oc2ccc(NC(=O)c3ccncc3N)cc2Cl)nc1` ?
Result :: < 5.00

Query :: Entry under review: `Nc1cccnc1C(=O)Nc1ccc(N2CCCC2=O)c(Cl)c1` . Reported pEC50?
Result :: < 5.00

Query :: What pEC50 value was documented for this molecule, Nc1cccnc1C(=O)Nc1ccc(N2C(=O)C3CCC2C3)c(Cl)c1 (centres undefined) ?
Result :: < 5.00

Query :: Item `Nc1cccnc1C(=O)Nc1cccc(Cl)c1` has what recorded pEC50?
Result :: 6.23

Query :: Using the record for `Nc1cccnc1C(=O)Nc1ccc(N2CC3(CCCC3)CC2=O)c(Cl)c1` , report its pEC50.
Result :: < 5.00

Query :: Quick check: pEC50 of `CCc1cnc(Oc2ccc(NC(=O)c3nccnc3N)cc2Cl)nc1` ?
Result :: 6.53

Query :: Quick one: pEC50 for `CC1(C)CC(=O)N(c2ccc(NC(=O)c3ncccc3N)cc2Cl)C1` ?
Result :: < 5.00
